# measuredOn: UniProtKB Q9NZQ8
# Sequence (Q9NZQ8 whole entry): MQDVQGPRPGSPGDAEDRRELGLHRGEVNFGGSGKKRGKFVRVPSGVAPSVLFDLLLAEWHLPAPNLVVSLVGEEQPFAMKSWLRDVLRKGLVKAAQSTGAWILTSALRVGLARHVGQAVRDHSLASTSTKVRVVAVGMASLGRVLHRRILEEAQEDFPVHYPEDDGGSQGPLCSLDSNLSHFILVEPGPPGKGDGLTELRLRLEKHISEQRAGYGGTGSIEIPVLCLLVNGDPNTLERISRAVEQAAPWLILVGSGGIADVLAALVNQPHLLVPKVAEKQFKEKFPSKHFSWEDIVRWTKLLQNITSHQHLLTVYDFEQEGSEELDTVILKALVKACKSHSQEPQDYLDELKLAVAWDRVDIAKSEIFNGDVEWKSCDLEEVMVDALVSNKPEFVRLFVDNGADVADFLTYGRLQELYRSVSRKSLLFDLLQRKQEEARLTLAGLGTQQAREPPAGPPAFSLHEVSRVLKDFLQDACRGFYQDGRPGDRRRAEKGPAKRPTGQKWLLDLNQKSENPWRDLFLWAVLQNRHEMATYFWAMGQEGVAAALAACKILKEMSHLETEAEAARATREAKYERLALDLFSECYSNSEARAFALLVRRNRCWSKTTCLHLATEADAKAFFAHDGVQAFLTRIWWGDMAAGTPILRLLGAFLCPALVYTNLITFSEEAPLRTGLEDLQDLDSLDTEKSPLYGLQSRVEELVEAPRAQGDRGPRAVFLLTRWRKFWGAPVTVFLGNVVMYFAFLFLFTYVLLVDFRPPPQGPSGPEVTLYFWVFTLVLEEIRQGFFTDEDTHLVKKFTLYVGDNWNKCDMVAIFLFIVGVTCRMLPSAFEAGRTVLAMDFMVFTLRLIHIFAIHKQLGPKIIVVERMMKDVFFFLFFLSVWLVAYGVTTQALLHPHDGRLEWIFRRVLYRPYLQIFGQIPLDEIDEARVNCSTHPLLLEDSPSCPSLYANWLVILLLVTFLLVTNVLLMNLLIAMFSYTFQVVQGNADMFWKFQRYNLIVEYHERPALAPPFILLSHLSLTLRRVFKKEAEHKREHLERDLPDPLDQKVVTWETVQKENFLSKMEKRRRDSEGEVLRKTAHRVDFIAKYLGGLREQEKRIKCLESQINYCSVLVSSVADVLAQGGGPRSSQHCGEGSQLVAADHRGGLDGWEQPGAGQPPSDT
# assayNotes: Agonist activity at human TRPM5 expressed in CHO-K1 cells assessed as increase in relative fluorescence unit measured for 2 mins by FLIPR based membrane potential assay
# Format: cell-based
measureName: pEC50
By convention, pEC50 is the negative base-10 log of a molar concentration.

Please give measured pEC50 of the following entry: OC[C@@H]1Cc2ccc(Cl)cc2[C@H](c2ccccn2)N1
5.10

Please give measured pEC50 of the following entry: OC[C@@H]1Cc2cc(Cl)ccc2[C@H](c2ccccc2)N1
6.30

Please give measured pEC50 of the following entry: N#Cc1ccc2c(c1)C[C@H](CO)N[C@@H]2c1cc(F)cc(Cl)c1
7.10

Please give measured pEC50 of the following entry: OC[C@@H]1Cc2c(Cl)cccc2[C@H](c2ccccc2)N1
5.90

Please give measured pEC50 of the following entry: OC[C@@H]1Cc2cc(Cl)ccc2[C@H](c2ccccc2Cl)N1
5.80

Please give measured pEC50 of the following entry: C=CCNC(=S)/N=c1/sc2ccccc2n1C
6.20

Please give measured pEC50 of the following entry: OC[C@@H]1Cc2cc(Cl)ccc2[C@H](c2cc(F)cc(Cl)c2)N1
7.20

Please give measured pEC50 of the following entry: OC[C@@H]1Cc2cc(Cl)ncc2[C@H](c2cc(F)cc(Cl)c2)N1
5.70

Please give measured pEC50 of the following entry: N#Cc1ccc2c(c1)C[C@@H](CO)N[C@H]2c1cc(F)cc(Cl)c1
4.70

Please give measured pEC50 of the following entry: OC[C@@H]1Cc2ccc(Cl)cc2[C@H](c2cccnc2)N1
4.70

Please give measured pEC50 of the following entry: Cc1cc([C@@H]2N[C@H](CO)Cc3ccc(Cl)cc32)ccc1Cl
6.00

Please give measured pEC50 of the following entry: OC[C@@H]1Cc2cc(Cl)c(Cl)cc2[C@H](c2ccccc2)N1
7.30

Please give measured pEC50 of the following entry: OC[C@@H]1Cc2ccc(Cl)cc2[C@H](c2cccc(Cl)c2)N1
6.30

Please give measured pEC50 of the following entry: OC[C@@H]1Cc2ccc(Cl)cc2[C@H](c2cc(F)cc(F)c2)N1
6.70

Please give measured pEC50 of the following entry: N#Cc1ccc2c(c1)C[C@H](CO)N[C@@H]2c1cc(F)cc(Cl)c1 (racemic)
6.90

Please give measured pEC50 of the following entry: OC[C@@H]1Cc2ccc(Cl)cc2[C@H](c2cc(F)cc(Cl)c2)N1
7.00

Please give measured pEC50 of the following entry: N#Cc1cc(F)cc([C@@H]2N[C@H](CO)Cc3cc(Cl)ccc32)c1
6.60

Please give measured pEC50 of the following entry: OC[C@@H]1Cc2ccc(Cl)cc2[C@H](c2ccccc2)N1 (racemic)
6.10

Please give measured pEC50 of the following entry: Cc1ccc2c(c1)C[C@@H](CO)N[C@H]2c1ccccc1
5.00

Values from ChEMBL document CHEMBL5150049
